Recorded values, source ChEMBL document CHEMBL3132768.

- Tested on: Nucleic Acid
- Test Details: Binding affinity to HIV1 TAR RNA assessed as change in melting temperature by […]
- Format: nucleic-acid assay
- Condition Context: Human immunodeficiency virus 1
Observation Type: ΔTm (°C)
Give just the number in °C; leave the unit off.

Request: Specify reported ΔTm for the molecule shown: O=C(CCNC(=O)C1CCNCC1)Nc1ccc2c(c1)C(=O)c1ccc(NC(=O)CCNC(=O)C3CCNCC3)cc1C2=O.O=C(O)C(F)(F)F.O=C(O)C(F)(F)F
Result: 1.49

Request: Specify reported ΔTm for the molecule shown: NCCC(=O)NCCC(=O)Nc1ccc2c(c1)C(=O)c1ccc(NC(=O)CCNC(=O)CCN)cc1C2=O.O=C(O)C(F)(F)F.O=C(O)C(F)(F)F
Result: 2.79

Request: Specify reported ΔTm for the molecule shown: NCCC(N)C(=O)NCCC(=O)Nc1ccc2c(c1)C(=O)c1ccc(NC(=O)CCNC(=O)C(N)CCN)cc1C2=O.O=C(O)C(F)(F)F.O=C(O)C(F)(F)F.O=C(O)C(F)(F)F.O=C(O)C(F)(F)F (stereo not given)
Result: 8.95

Request: Specify reported ΔTm for the molecule shown: NCC1CCC(C(=O)NCCC(=O)Nc2ccc3c(c2)C(=O)c2ccc(NC(=O)CCNC(=O)C4CCC(CN)CC4)cc2C3=O)CC1.O=C(O)C(F)(F)F.O=C(O)C(F)(F)F (stereo not given)
Result: 0.97

Request: Specify reported ΔTm for the molecule shown: NCCCCC(N)C(=O)NCCC(=O)Nc1ccc2c(c1)C(=O)c1ccc(NC(=O)CCNC(=O)C(N)CCCCN)cc1C2=O (stereo not given)
Result: 2.88

---

- Test Details: Octanol-water partition co-efficient, log P of the compound by shake flask method
- Format: physicochemical
What logP was measured for each of the following?
I'd appreciate a reply containing only the number, no unit.

Request: Specify reported logP for the molecule shown: Nc1ccc(CC(N)C(=O)NCCC(=O)Nc2ccc3c(c2)C(=O)c2ccc(NC(=O)CCNC(=O)C(N)Cc4ccc(N)cc4)cc2C3=O)cc1.O=C(O)C(F)(F)F.O=C(O)C(F)(F)F.O=C(O)C(F)(F)F.O=C(O)C(F)(F)F (stereo not drawn)
Result: -2.51

Request: Specify reported logP for the molecule shown: NCC(N)C(=O)NCCC(=O)Nc1ccc2c(c1)C(=O)c1ccc(NC(=O)CCNC(=O)C(N)CN)cc1C2=O.O=C(O)C(F)(F)F.O=C(O)C(F)(F)F.O=C(O)C(F)(F)F.O=C(O)C(F)(F)F (stereo not drawn)
Result: -2.56

Request: Specify reported logP for the molecule shown: NCC1CCC(C(=O)NCCC(=O)Nc2ccc3c(c2)C(=O)c2ccc(NC(=O)CCNC(=O)C4CCC(CN)CC4)cc2C3=O)CC1.O=C(O)C(F)(F)F.O=C(O)C(F)(F)F (stereo not drawn)
Result: -2.31

Request: Specify reported logP for the molecule shown: NCCC(=O)NCCC(=O)Nc1ccc2c(c1)C(=O)c1ccc(NC(=O)CCNC(=O)CCN)cc1C2=O.O=C(O)C(F)(F)F.O=C(O)C(F)(F)F
Result: -2.98

Request: Specify reported logP for the molecule shown: NC1(C(=O)NCCC(=O)Nc2ccc3c(c2)C(=O)c2ccc(NC(=O)CCNC(=O)C4(N)CCNCC4)cc2C3=O)CCNCC1.O=C(O)C(F)(F)F.O=C(O)C(F)(F)F.O=C(O)C(F)(F)F.O=C(O)C(F)(F)F
Result: -2.91

Request: Specify reported logP for the molecule shown: NCCCC(N)C(=O)NCCC(=O)Nc1ccc2c(c1)C(=O)c1ccc(NC(=O)CCNC(=O)C(N)CCCN)cc1C2=O.O=C(O)C(F)(F)F.O=C(O)C(F)(F)F.O=C(O)C(F)(F)F.O=C(O)C(F)(F)F (stereo not drawn)
Result: -2.51

Request: Specify reported logP for the molecule shown: O=C(CCNC(=O)C1CCNCC1)Nc1ccc2c(c1)C(=O)c1ccc(NC(=O)CCNC(=O)C3CCNCC3)cc1C2=O.O=C(O)C(F)(F)F.O=C(O)C(F)(F)F
Result: -2.91

Request: Specify reported logP for the molecule shown: NCCC(N)C(=O)NCCC(=O)Nc1ccc2c(c1)C(=O)c1ccc(NC(=O)CCNC(=O)C(N)CCN)cc1C2=O.O=C(O)C(F)(F)F.O=C(O)C(F)(F)F.O=C(O)C(F)(F)F.O=C(O)C(F)(F)F (stereo not drawn)
Result: -2.55

---

- System: Nucleic Acid
- Test Details: Binding affinity to HIV1 TAR/cTAR RNA/DNA duplex assessed as change in melting temperature by […]
- Type: nucleic-acid assay
- Condition Context: Human immunodeficiency virus 1
What ΔTm was measured for each of the following?

Request: Specify reported ΔTm for the compound shown: NCC1CCC(C(=O)NCCC(=O)Nc2ccc3c(c2)C(=O)c2ccc(NC(=O)CCNC(=O)C4CCC(CN)CC4)cc2C3=O)CC1.O=C(O)C(F)(F)F.O=C(O)C(F)(F)F (stereo not drawn)
Result: 0.84 °C

Request: Specify reported ΔTm for the compound shown: NCCCCC(N)C(=O)NCCC(=O)Nc1ccc2c(c1)C(=O)c1ccc(NC(=O)CCNC(=O)C(N)CCCCN)cc1C2=O (stereo not drawn)
Result: 1.12 °C

Request: Specify reported ΔTm for the compound shown: NCCC(N)C(=O)NCCC(=O)Nc1ccc2c(c1)C(=O)c1ccc(NC(=O)CCNC(=O)C(N)CCN)cc1C2=O.O=C(O)C(F)(F)F.O=C(O)C(F)(F)F.O=C(O)C(F)(F)F.O=C(O)C(F)(F)F (stereo not drawn)
Result: 1.77 °C

---

What IC50 was measured for each of the following?
- Test Details: Inhibition of NC-induced HIV1 cTAR destabilization assessed as change in melting temperature by fluorescence quenching assay
- Parameters: species or system Human immunodeficiency virus 1
Give just the number in µM; leave the unit off.

Request: Specify reported IC50 for the compound shown: NCCC(=O)NCCC(=O)Nc1ccc2c(c1)C(=O)c1ccc(NC(=O)CCNC(=O)CCN)cc1C2=O.O=C(O)C(F)(F)F.O=C(O)C(F)(F)F
Result: 11.8

Request: Specify reported IC50 for the compound shown: O=C(CCNC(=O)C1CCNCC1)Nc1ccc2c(c1)C(=O)c1ccc(NC(=O)CCNC(=O)C3CCNCC3)cc1C2=O.O=C(O)C(F)(F)F.O=C(O)C(F)(F)F
Result: 36.3

Request: Specify reported IC50 for the compound shown: NCCC(N)C(=O)NCCC(=O)Nc1ccc2c(c1)C(=O)c1ccc(NC(=O)CCNC(=O)C(N)CCN)cc1C2=O.O=C(O)C(F)(F)F.O=C(O)C(F)(F)F.O=C(O)C(F)(F)F.O=C(O)C(F)(F)F (stereo not drawn)
Result: 7.1

Request: Specify reported IC50 for the compound shown: NCCCC(N)C(=O)NCCC(=O)Nc1ccc2c(c1)C(=O)c1ccc(NC(=O)CCNC(=O)C(N)CCCN)cc1C2=O.O=C(O)C(F)(F)F.O=C(O)C(F)(F)F.O=C(O)C(F)(F)F.O=C(O)C(F)(F)F (stereo not drawn)
Result: 2.04

Request: Specify reported IC50 for the compound shown: NCC1CCC(C(=O)NCCC(=O)Nc2ccc3c(c2)C(=O)c2ccc(NC(=O)CCNC(=O)C4CCC(CN)CC4)cc2C3=O)CC1.O=C(O)C(F)(F)F.O=C(O)C(F)(F)F (stereo not drawn)
Result: 13.7

Request: Specify reported IC50 for the compound shown: NC1(C(=O)NCCC(=O)Nc2ccc3c(c2)C(=O)c2ccc(NC(=O)CCNC(=O)C4(N)CCNCC4)cc2C3=O)CCNCC1.O=C(O)C(F)(F)F.O=C(O)C(F)(F)F.O=C(O)C(F)(F)F.O=C(O)C(F)(F)F
Result: 15.4

Request: Specify reported IC50 for the compound shown: NCC(N)C(=O)NCCC(=O)Nc1ccc2c(c1)C(=O)c1ccc(NC(=O)CCNC(=O)C(N)CN)cc1C2=O.O=C(O)C(F)(F)F.O=C(O)C(F)(F)F.O=C(O)C(F)(F)F.O=C(O)C(F)(F)F (stereo not drawn)
Result: 22.8

Request: Specify reported IC50 for the compound shown: NCCCCC(N)C(=O)NCCC(=O)Nc1ccc2c(c1)C(=O)c1ccc(NC(=O)CCNC(=O)C(N)CCCCN)cc1C2=O (stereo not drawn)
Result: 3.84
